Experiment: Optical properties: UV-visible spectra, fluorescence excitation and emission
Format: physicochemical
Conditions: fluorescence emission wavelength
Here, each record is paired with measured λem data.
Numeric only. Scale: nm

{"columns": ["compound", "λem [nm]"],
 "data": [
  ["CCN(CC)c1ccc(C#Cc2nc3c(N)ncnc3n2[C@@H]2O[C@H](CO)[C@@H](O)[C@H]2O)cc1 [Compound 6e]", 506],
  ["CSc1ccc(C#Cc2nc3c(=O)[nH]c(N)nc3n2[C@@H]2O[C@H](CO)[C@@H](O)[C@H]2O)cc1 [Compound 5d]", 426]
]}

// switching to the query compound
query: Fill in λem for record Nc1ncnc2c1nc(C#Cc1cccc3ccccc13)n2[C@@H]1O[C@H](CO)[C@@H](O)[C@H]1O [Compound 6h, 8-(Napthylethynyl)adenosine]
result: 431
